kon overview
Target: T1, human VEGF-A165 (VEGF homodimer with each monomer having 165 amino acid residues) (Homo sapiens, UniProt P15692-4, strain, biotin (site not stated; named for Supplementary Table 2 only))
T1 construct: also called hVEGF-A165; hVEGF; source: bought: Peprotech (catalogue number AF-100-20)
T1 sequence (P15692 whole entry, looked up, change not shown): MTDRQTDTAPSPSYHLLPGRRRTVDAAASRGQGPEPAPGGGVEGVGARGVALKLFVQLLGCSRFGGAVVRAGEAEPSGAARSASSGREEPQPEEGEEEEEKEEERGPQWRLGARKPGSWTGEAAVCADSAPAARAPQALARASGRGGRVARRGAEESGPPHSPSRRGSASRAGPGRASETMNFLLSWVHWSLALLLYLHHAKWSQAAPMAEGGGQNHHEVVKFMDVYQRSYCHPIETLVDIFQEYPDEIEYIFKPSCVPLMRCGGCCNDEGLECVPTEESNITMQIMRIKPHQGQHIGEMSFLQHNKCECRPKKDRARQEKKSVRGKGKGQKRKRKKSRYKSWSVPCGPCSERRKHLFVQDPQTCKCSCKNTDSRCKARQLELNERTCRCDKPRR
Experiment: SPR; Biacore as per the manufacturer's protocol; kinetic rate constants and affinity of the Fab constructs for biotinylated hVEGF-A165
Settings: both partners purified

binder	result units	kon
LAVA45, variant of LAVA1 with an additional disulfide bond in the LINK domain (Fab, V domains shown, as the Fab part of the heavy chain of Dm4 (LAVA1); linker; TSG6, human, LINK domain (HABP), with cysteine residues introduced for an additional disulfide bond and substitutions at and around the observed digestion sites; as the light chain of Dm4 (LAVA1); The substitutions are in Supplementary Data 2) VH: EVQLVESGGGLVQPGGSLRLSCTASGFSLTDYYYMTWVRQAPGKGLEWVGFIDPDDDPYYATWAKGRFTISRDNSKNTLYLQMNSLRAEDTAVYYCAGGDHNSGWGLDIWGQGTLVTVSS VL: EIVMTQSPSTLSASVGDRVIITCQASEIIHSWLAWYQQKPGKAPKLLIYLASTLASGVPSRFSGSGSGAEFTLTISSLQPDDFATYYCQNVYLASTNGANFGQGTKLTVL	M⁻¹ s⁻¹	2.35e+07
LAVA1 (NVS24): NVS0 Fab with the LINK domain of human TSG6 fused to the C terminus of the heavy chain (Fab, V domains shown, Fab heavy chain of NVS0 (from brolucizumab); linker; TSG6 (TNF-stimulated gene 6 protein), human, LINK domain; Fab light chain of NVS0 (from brolucizumab); The LINK domain has a natural N-linked glycosylation site) VH: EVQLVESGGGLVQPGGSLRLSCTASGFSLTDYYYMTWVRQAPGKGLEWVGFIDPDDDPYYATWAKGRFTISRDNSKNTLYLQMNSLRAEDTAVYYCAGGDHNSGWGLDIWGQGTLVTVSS VL: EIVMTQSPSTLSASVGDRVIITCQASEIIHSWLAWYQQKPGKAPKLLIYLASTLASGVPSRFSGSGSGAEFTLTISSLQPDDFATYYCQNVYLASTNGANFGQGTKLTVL	M⁻¹ s⁻¹	5.75e+07
LAVA3, protease-resistant variant of LAVA1 (Fab, V domains shown, as the Fab part of the heavy chain of Dm4 (LAVA1); linker; TSG6, human, LINK domain (HABP), with amino acid substitutions around the observed proteolytic sites; as the light chain of Dm4 (LAVA1); The substitutions are in Supplementary Data 2) VH: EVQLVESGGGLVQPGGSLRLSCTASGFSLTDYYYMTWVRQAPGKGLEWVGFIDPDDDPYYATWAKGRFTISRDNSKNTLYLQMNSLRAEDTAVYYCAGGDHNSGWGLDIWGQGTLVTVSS VL: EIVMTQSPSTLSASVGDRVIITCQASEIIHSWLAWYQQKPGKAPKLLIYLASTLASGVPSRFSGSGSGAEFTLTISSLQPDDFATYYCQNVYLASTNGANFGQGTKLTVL	M⁻¹ s⁻¹	7.39e+07
LAVA2, protease-resistant variant of LAVA1 (Fab, V domains shown, as the Fab part of the heavy chain of Dm4 (LAVA1); linker; TSG6, human, LINK domain (HABP), with amino acid substitutions around the observed proteolytic sites; as the light chain of Dm4 (LAVA1); The substitutions are in Supplementary Data 2) VH: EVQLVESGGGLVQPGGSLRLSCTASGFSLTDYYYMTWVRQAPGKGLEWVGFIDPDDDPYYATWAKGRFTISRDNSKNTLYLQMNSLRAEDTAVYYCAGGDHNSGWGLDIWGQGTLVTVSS VL: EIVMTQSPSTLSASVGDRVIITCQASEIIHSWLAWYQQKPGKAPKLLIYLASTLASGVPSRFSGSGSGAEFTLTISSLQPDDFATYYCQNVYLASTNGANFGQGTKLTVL	M⁻¹ s⁻¹	4.1e+07
LAVA46, variant of LAVA1 with an additional disulfide bond in the LINK domain (Fab, V domains shown, as the Fab part of the heavy chain of Dm4 (LAVA1); linker; TSG6, human, LINK domain (HABP), with cysteine residues introduced for an additional disulfide bond and substitutions at and around the observed digestion sites; as the light chain of Dm4 (LAVA1); The substitutions are in Supplementary Data 2) VH: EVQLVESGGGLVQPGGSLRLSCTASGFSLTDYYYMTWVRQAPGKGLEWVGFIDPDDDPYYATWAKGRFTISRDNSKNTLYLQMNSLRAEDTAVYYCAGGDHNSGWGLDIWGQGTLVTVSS VL: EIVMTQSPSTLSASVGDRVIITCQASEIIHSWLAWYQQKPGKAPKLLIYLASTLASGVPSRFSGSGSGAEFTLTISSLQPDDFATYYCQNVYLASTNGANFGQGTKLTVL	M⁻¹ s⁻¹	6.23e+07
